target: human neutrophil elastase (HNE) (Homo sapiens, UniProt P08246); assay: HNE inhibition assay; format: biochemical
Sequence (P08246 30-247 limits assumed): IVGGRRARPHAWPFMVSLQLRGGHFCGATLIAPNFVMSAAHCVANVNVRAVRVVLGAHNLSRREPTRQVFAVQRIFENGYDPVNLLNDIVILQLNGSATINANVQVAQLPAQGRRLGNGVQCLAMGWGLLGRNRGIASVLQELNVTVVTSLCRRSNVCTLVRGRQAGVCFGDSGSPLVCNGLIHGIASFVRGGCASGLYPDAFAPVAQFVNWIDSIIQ
experimental.readout: HNE inhibitory activity (in words)

CCOC(=O)c1nn(Cc2cccc(C)c2)c2ccccc2c1=O
completely inactive
CCOC(=O)c1nn(C)c2ccccc2c1=O
completely inactive
Cc1cccc(C(=O)n2nc(-c3ccccc3)c(=O)c3ccccc32)c1 [Compound 11a]
loss of activity
Cc1cccc(C(=O)n2nc(C(=O)O)c(=O)c3ccccc32)c1
loss of activity

API: the following record is the query input.
Request: What does the data say about its HNE inhibitory activity (in words)? Entry: Cc1cccc(C(=O)n2nc(CO)c(=O)c3ccccc32)c1 [Compound 11d]
Result: loss of activity
